The measurements presented in this section are drawn from patent US11498920B2.

Test: Pharmacokinetic study, oral dosing, plasma concentration by LC-MS/MS (Example II.5)
Type: in vivo
Conditions: mouse, male Balb/c mice, oral 20 mg/kg as dihydrochloride in saline, free base quantified, below LLOQ designated zero, read-out: conc. at 15 min
measured.metric: concentration at 15 min (µM)

Fc1ccc(-c2ncn(Cc3cccnc3)c2-c2ccnc3[nH]ccc23)cc1    1.37

(I) CN(C)[C@H]1C[C@@H](n2cnc(-c3ccc(F)cc3)c2-c2ccnc3[nH]ccc23)C1
(II) Cc1nnc(Cn2cnc(-c3ccc(F)cc3)c2-c2ccnc3[nH]ccc23)[nH]1
(III) Cn1nnc(Cn2cnc(-c3ccc(F)cc3)c2-c2ccnc3[nH]ccc23)n1
Query: Rank entries according to their concentration at 15 min, from the largest number down. List the labels in the requested order.
Response: III, II, I
(III: 18.9 µM, II: 4.78 µM, I: 1.35 µM)

====

System: primary CLL
Test: Cytotoxicity on panel of cell lines, TMRE viability (Example II.2)
Format: cell-based
Conditions: Homo sapiens, 24 hours, mean, control = 1, read-out: cell viability relative to control, primary CLL
Some molecules, each annotated with its measured viability at 30 µM.
Dear colleague, please return just the value in %, with no unit written.

Fc1ccc(-c2ncn(C3CCNCC3)c2-c2ccnc3[nH]ccc23)cc1 [Preparative Example 37]    39

Looking up Fc1ccc(-c2nc(I)n(C3CCCCC3)c2-c2ccnc3[nH]ccc23)cc1 [Preparative Example 95] , I see its viability at 30 µM listed as 2

Looking up Fc1ccc(-c2ncn(C3CCCCC3)c2-c2ccnc3[nH]cc(F)c23)cc1 [Preparative Example 149] , I see its viability at 30 µM listed as 68

Looking up Fc1ccc(-c2ncn(Cc3ccccc3)c2-c2ccnc3[nH]ccc23)cc1Cl [Preparative Example 140] , I see its viability at 30 µM listed as 60

Looking up Fc1ccc(-c2ncn(-c3ccccc3)c2-c2ccnc3[nH]ccc23)cc1 [Preparative Example 47] , I see its viability at 30 µM listed as 81

Looking up Fc1ccc(-c2ncn(C3CCCCC3)c2-c2c(F)cnc3[nH]ccc23)cc1 [Preparative Example 147] , I see its viability at 30 µM listed as 37

Looking up C=CS(=O)(=O)N[C@H]1CC[C@@H](n2cnc(-c3ccc(F)cc3)c2-c2ccnc3[nH]ccc23)CC1 [Preparative Example 97] , I see its viability at 30 µM listed as 51

====

System: primary CLL cells
Assay: Cytotoxicity, TMRE flow cytometry viability, primary CLL cells (Example II.1)
Type: cell-based
Details: Homo sapiens, CLL cell, 6 hours, TMRE positive cells normalized to control, ratio to PF670462, <1 = higher cytotoxicity than PF670462, read-out: Viability of cells, Compound of formula I (100 μM), relative to PF670462 (100 μM), CLL primary cells
measured.metric: viability at 100 µM (%)
Dear colleague, please return just the value in %, with no unit written.

Example entries begin here.
Cc1cc2c(-c3c(-c4ccc(F)cc4)ncn3C3CCCCC3)ccnc2[nH]1    10
CN1CCC(F)(Cn2cnc(-c3ccc(F)cc3)c2-c2ccnc3[nH]ccc23)CC1    64
CC(c1ccccc1)n1cnc(-c2ccc(F)cc2)c1-c1ccnc2[nH]ccc12 (stereo not drawn)    16
Fc1ccc(-c2ncn(Cc3ccco3)c2-c2ccnc3[nH]ccc23)cc1    60
CN(C)[C@H]1C[C@@H](n2cnc(-c3ccc(F)cc3)c2-c2ccnc3[nH]ccc23)C1    58
c1cncc(-c2ncn(C3CCCCC3)c2-c2ccnc3[nH]ccc23)c1    81
Fc1ccc(-c2nc(I)n(C3CCCCC3)c2-c2ccnc3[nH]ccc23)cc1    2
Brc1cccc(-c2ncn(C3CCCCC3)c2-c2ccnc3[nH]ccc23)c1    37
Fc1ccc(-c2ncn(C3CCCCC3)c2-c2ccnc3[nH]cc(Cl)c23)cc1    36
CC(C)CCn1cnc(-c2ccc(F)cc2)c1-c1ccnc2[nH]ccc12    13

Looking up Fc1ccc(-c2ncn(CCc3ccccc3)c2-c2ccnc3[nH]ccc23)cc1 , I see its viability at 100 µM listed as 10

Looking up Fc1ccc(-c2ncn(CCN3CCOCC3)c2-c2ccnc3[nH]ccc23)cc1 , I see its viability at 100 µM listed as 80

Looking up CC(=O)N[C@H]1CC[C@@H](n2cnc(-c3ccc(F)cc3)c2-c2ccnc3[nH]ccc23)CC1 , I see its viability at 100 µM listed as 83

Looking up CN(C)CCCS(=O)(=O)N[C@H]1CC[C@@H](n2cnc(-c3ccc(F)cc3)c2-c2ccnc3[nH]ccc23)CC1 , I see its viability at 100 µM listed as 1

Looking up CC1(C)CC(Cn2cnc(-c3ccc(F)cc3)c2-c2ccnc3[nH]ccc23)C1 , I see its viability at 100 µM listed as 21

====

Test: Pharmacokinetic study, oral dosing, plasma concentration by LC-MS/MS (Example II.5)
Format: in vivo
Conditions: mouse, male Balb/c mice, oral 20 mg/kg as dihydrochloride in saline, free base quantified, below LLOQ designated zero, read-out: conc. at 240 min
measured.metric: concentration at 240 min (nM)

Cc1nnc(Cn2cnc(-c3ccc(F)cc3)c2-c2ccnc3[nH]ccc23)[nH]1    240
CN1CCC(Cn2cnc(-c3ccc(F)cc3)c2-c2ccnc3[nH]ccc23)CC1    480
Fc1ccc(-c2ncn(Cc3nc[nH]n3)c2-c2ccnc3[nH]ccc23)cc1    520

(P) Fc1ccc(-c2ncn(Cc3cccnc3)c2-c2ccnc3[nH]ccc23)cc1
(Q) Cn1ccc(Cn2cnc(-c3ccc(F)cc3)c2-c2ccnc3[nH]ccc23)n1
(R) Cn1cc(Cn2cnc(-c3ccc(F)cc3)c2-c2ccnc3[nH]ccc23)nn1
(S) Cn1cnc(Cn2cnc(-c3ccc(F)cc3)c2-c2ccnc3[nH]ccc23)c1
(T) CN1CCC(F)(Cn2cnc(-c3ccc(F)cc3)c2-c2ccnc3[nH]ccc23)CC1
Query: Arrange the 5 entries by concentration at 240 min so the values rise. List the labels in the requested order.
Response: Q, P, S, R, T

(a) CN(C)[C@H]1C[C@@H](n2cnc(-c3ccc(F)cc3)c2-c2ccnc3[nH]ccc23)C1
(b) Cn1ccnc1Cn1cnc(-c2ccc(F)cc2)c1-c1ccnc2[nH]ccc12
(c) Cn1nnc(Cn2cnc(-c3ccc(F)cc3)c2-c2ccnc3[nH]ccc23)n1
Query: Rank entries according to their concentration at 240 min, from the largest number down. List the labels in the requested order.
Response: c, b, a

====

Experiment: Pharmacokinetic study, oral dosing, plasma concentration by LC-MS/MS (Example II.5)
Assay type: in vivo
Details: mouse, male Balb/c mice, oral 20 mg/kg as dihydrochloride in saline, free base quantified, below LLOQ designated zero, read-out: conc. at 120 min
measured.metric: concentration at 120 min (nM)

Example entries begin here.
Cn1ccnc1Cn1cnc(-c2ccc(F)cc2)c1-c1ccnc2[nH]ccc12    160
Cn1cnc(Cn2cnc(-c3ccc(F)cc3)c2-c2ccnc3[nH]ccc23)c1    790
Cn1nnc(Cn2cnc(-c3ccc(F)cc3)c2-c2ccnc3[nH]ccc23)n1    770

(P) Fc1ccc(-c2ncn(Cc3cccnc3)c2-c2ccnc3[nH]ccc23)cc1
(Q) Fc1ccc(-c2ncn(Cc3nc[nH]n3)c2-c2ccnc3[nH]ccc23)cc1
(R) CN(C)[C@H]1C[C@@H](n2cnc(-c3ccc(F)cc3)c2-c2ccnc3[nH]ccc23)C1
(S) Fc1ccc(-c2ncn(Cc3cocn3)c2-c2ccnc3[nH]ccc23)cc1
Query: Rank entries according to their concentration at 120 min, from the largest number down. List the labels in the requested order.
Response: Q, R, S, P
(Q: 2450 nM, R: 130 nM, S: 80 nM, P: 40 nM)

====

Some compounds, each annotated with its measured viability at 30 µM.
Test system: Nalm16
Experiment: Cytotoxicity on panel of cell lines, TMRE viability (Example II.2)
Type: cell-based
Details: 24 hours, mean, control = 1, read-out: cell viability relative to control, Nalm16 (ALL)
Dear colleague, please return just the value in %, with no unit written.

Looking up Fc1ccc(-c2ncn(C3CCCCC3)c2-c2ccnc3[nH]ccc23)cc1 [Preparative Example 3] , I see its viability at 30 µM listed as 32

Looking up Fc1ccc(-c2ncn(C3CCNCC3)c2-c2ccnc3[nH]ccc23)cc1 [Preparative Example 37] , I see its viability at 30 µM listed as 50

Looking up COCCCn1cnc(-c2ccc(F)cc2)c1-c1ccnc2[nH]ccc12 [Preparative Example 24] , I see its viability at 30 µM listed as 75

Looking up c1cc(-c2c(C3CCCCC3)ncn2C2CCCCC2)c2cc[nH]c2n1 [Preparative Example 67] , I see its viability at 30 µM listed as 40

Looking up Fc1ccc(-c2ncn(Cc3ccoc3)c2-c2ccnc3[nH]ccc23)cc1 [Preparative Example 23] , I see its viability at 30 µM listed as 20

Looking up Cc1nc(-c2ccc(F)cc2)c(-c2ccnc3[nH]ccc23)n1C1CCCCC1 [Preparative Example 61] , I see its viability at 30 µM listed as 6

Looking up Nc1nccc(-c2c(-c3ccc(F)cc3)ncn2C2CCCCC2)n1 [PF670462, reference compound] , I see its viability at 30 µM listed as 94

Looking up CS(=O)(=O)N[C@H]1CC[C@@H](n2cnc(-c3ccc(F)cc3)c2-c2ccnc3[nH]ccc23)CC1 [Preparative Example 74] , I see its viability at 30 µM listed as 78

Looking up Fc1ccc(-c2ncn(-c3ccccc3)c2-c2ccnc3[nH]ccc23)cc1 [Preparative Example 47] , I see its viability at 30 µM listed as 57

Looking up Cc1cc2c(-c3c(-c4ccc(F)cc4)ncn3C3CCCCC3)ccnc2[nH]1 [Preparative Example 39] , I see its viability at 30 µM listed as 6
